The measurements presented in this section are drawn from PubChem BioAssay (NCI).

System: MCF7 breast
test description: NCI tumour cell line growth inhibition, 48 h
Note to self: values exactly at 50 µM are MET. So TGI at or above 50 µM is MET, below is NOT MET.

Would you please look over these solved cases?
### Prompt For this compound, is measured TGI 50 µM or higher? "O=CC1=C(C(=O)OC(c2ccccc2)c2ccccc2)N2C(=O)[C@@H](NC(=O)Cc3cccs3)[C@H]2SC1"
### Response MET

### Prompt // query: "CC(C)OC(=O)c1cc(NS(=O)(=O)c2ccc3ccccc3c2)cc(C(=O)OC(C)C)c1"
### Response NOT MET

### Prompt # iterate: O=S(/C=C/C=C/S(=O)(=O)c1ccccc1)c1ccccc1 (stereo not given)
### Response NOT MET

### Prompt Also, CCCCOC(=O)C(=O)C(CC(CC)C(=O)c1ccccc1)C(=O)C=C(C)C (stereo not given) please.
### Response MET

### Prompt Entry "O=C(Nc1ccc(Cl)cc1)c1cc2c(cc1Cl)Sc1nccn1S2(=O)=O" please
### Response MET

### Prompt Same thing, different compound: "COC(=O)C#Cc1cccc(OC)c1OC"
### Response MET

### Prompt Same again, this time with S=C1N=C2C(=N1)n1c3c(c4ccccc41)CCCC23 (stereo not given)
### Response MET

### Prompt Repeat with "CC(=O)N1CCC(Nc2cc(C(=O)NC[C@H](O)CN3CCc4ccccc4C3)ncn2)CC1"
### Response MET

Kindly consider the entry below.
### Prompt # bool: TGI of "Nc1ccc(I)cn1" >= 50 µM
### Response MET

====

System: OVCAR-3 ovarian
test description: NCI tumour cell line growth inhibition, 48 h
Quick reference: TGI of the listed items.

Reference set, count: 3
### Prompt Lab note: need TGI with OVCAR-3 ovarian for entry [N-]=[N+]=NC1C2CC3C4CC5CC3[C@H](C2)C(C5)C41 (some centres not stated) , please look it up.
### Response > 100 µM

### Prompt Try this molecule too: C=C1C(=O)OC2/C=C(/CO)C3(O)CC(O)C(C)(CC(OC(=O)/C(C)=C/C)C12)O3 (configuration not stated)
### Response > 67.8 µM

### Prompt One more molecule: COc1cc([C@@H]2C3C(=O)c4ccccc4C3[C@@H](c3cc(OC)c(OC)c(OC)c3)C23Cc2ccccc2C3=O)cc(OC)c1OC (some centres not stated)
### Response > 100 µM

***
### Prompt What TGI appears in the records for this molecule with OVCAR-3 ovarian? Cc1ccc(S(=O)(=O)NC(C(=O)O)C(C)C)cc1 (configuration not stated)
### Response > 100 µM

### Prompt Same question for CC1=NN(C(=O)CC(=O)Nc2ccccc2)C(=O)C1N=Nc1ccc(C(=O)O)cc1 (configuration not stated) please.
### Response > 100 µM

====

System: A549 NSCLC
test description: NCI tumour cell line growth inhibition, 48 h
measurement type: TGI

// known answers, use as guide
### Prompt Request - read-out TGI | tested on A549 NSCLC | molecule "O=Cc1cn(Cc2ccc(Cl)cc2)c2ccccc12"
### Response > 100 µM

### Prompt Next entry: CCCCOC(=O)C(=O)C(CC(CC)C(=O)c1ccccc1)C(=O)C=C(C)C (stereo unspecified)
### Response > 100 µM

### Prompt Also, "O=C1O/C(=C\c2ccc(O)c(Br)c2)C(c2ccc(O)c(Cl)c2)=C1Br" please.
### Response > 100 µM

---
### Prompt Which measured TGI belongs to Cc1nc(N)nn1C1OCC(O)C(O)C1O (stereo unspecified) , tested on A549 NSCLC?
### Response > 100 µM

### Prompt For "O=C(N/N=C/c1c(Cl)cccc1Cl)c1cccnc1Nc1cccc(C(F)(F)F)c1" then?
### Response > 100 µM

### Prompt One more molecule: c1ccc(C(NC2CCCCC2NCCNC2CCCCC2NC(c2ccccc2)(c2ccccc2)c2ccccc2)(c2ccccc2)c2ccccc2)cc1 (stereo unspecified)
### Response > 100 µM
